Source of measurements: PubChem BioAssay AID2060620

Measured IC50 of individual entries
Test system: 328373-195-R-J1-PDC complex spheroids, viability % test/control;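 note: spheroids exposed to the agents for 7 days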
TEST METHOD NOTES: Anticancer human tumor 328373-195-R-J1-PDC patient-derived head and neck squamous carcinoma cell line growth inhibition [CLK]
RECORDED CONDITIONS: curve of first compound; second compound 1 µM

# example entries with known answers
>  <COMPOUND>
C=CC(=O)N1CCN(c2nc(=O)n(-c3c(C)ccnc3C(C)C)c3nc(-c4c(O)cccc4F)c(F)cc23)C(C)C1 (stereo unspecified) + CNC(=O)c1ccc(Nc2nc(OC3CCCC3)c3c(-c4ccc5nc(C)oc5c4)c[nH]c3n2)c(OC)c1

>  <IC50>
< 31.6 nM

$$$$
>  <COMPOUND>
CCc1c2c(nc3ccc(O)cc13)-c1cc3c(c(=O)n1C2)COC(=O)[C@]3(O)CC + CN1CCN(c2cc(C(=O)Nc3cc4cc(-c5cnn(C)c5)ccc4cn3)ccn2)CC1

>  <IC50>
< 3.16 nM

$$$$
>  <COMPOUND>
CC(Nc1ccc2c(c1)OCCn1cc(N3C(=O)OCC3C(F)F)nc1-2)C(N)=O (stereo unspecified) + CNC(=O)c1ccc(Nc2nc(OC3CCCC3)c3c(-c4ccc5nc(C)oc5c4)c[nH]c3n2)c(OC)c1

>  <IC50>
< 31.6 nM

$$$$

# IC50 (compound: O=c1[nH]cc(F)c(=O)[nH]1 + CN1CCN(c2cc(C(=O)Nc3cc4cc(-c5cnn(C)c5)ccc4cn3)ccn2)CC1 ) is < 31.6 nM

The compound Nc1ccccc1NC(=O)c1ccc(CNC(=O)OCc2cccnc2)cc1 + CNC(=O)c1ccc(Nc2nc(OC3CCCC3)c3c(-c4ccc5nc(C)oc5c4)c[nH]c3n2)c(OC)c1 showed IC50 equal to < 31.6 nM

The compound listed as O=c1[nH]cc(F)c(=O)[nH]1 + CNC(=O)c1ccc(Nc2nc(OC3CCCC3)c3c(-c4ccc5nc(C)oc5c4)c[nH]c3n2)c(OC)c1 shows IC50 equal to < 31.6 nM
